Target: human p38 kinase alpha (Homo sapiens, UniProt Q16539)
Construct: GST (N, cleaved yes); made in house; host or cells: E. coli DH10B
Sequence (Q16539 whole entry): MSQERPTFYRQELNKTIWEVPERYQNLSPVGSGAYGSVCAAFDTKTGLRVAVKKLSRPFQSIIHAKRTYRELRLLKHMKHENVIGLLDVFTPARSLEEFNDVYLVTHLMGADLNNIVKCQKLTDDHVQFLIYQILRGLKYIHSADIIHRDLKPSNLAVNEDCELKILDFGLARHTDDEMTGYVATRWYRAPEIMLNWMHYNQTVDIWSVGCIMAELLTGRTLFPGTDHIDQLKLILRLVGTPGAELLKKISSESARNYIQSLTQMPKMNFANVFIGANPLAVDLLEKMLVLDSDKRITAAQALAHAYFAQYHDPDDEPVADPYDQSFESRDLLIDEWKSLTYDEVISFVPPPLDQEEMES
Experiment: p38 kinase in vitro assay, phosphorylation of biotinylated PHAS-I with 32P-ATP
Format: biochemical
Conditions: in vitro P38-alpha kinase inhibition; read-out: P38 alpha kinase IC50
Metric name: IC50 (nM)

Reference set (8 entries):
// field: IC50; key: "O=C(NCCc1[nH]nc(-c2ccc(F)cc2)c1-c1ccncc1)c1ccc(F)cc1F" ; value = 730

The recorded IC50 for entry CC(NS(=O)(=O)c1ccccc1Cl)c1[nH]nc(-c2ccc(F)cc2)c1-c1ccncc1 (stereo not drawn) equals 360

The measured IC50 associated with CC(NC(=O)c1ccccc1I)c1[nH]nc(-c2ccc(F)cc2)c1-c1ccncc1 (stereo not drawn) reads 500

Cc1cccc(S(=O)(=O)NC(C)c2[nH]nc(-c3ccc(F)cc3)c2-c2ccncc2)c1 (stereo not drawn) yielded IC50 of 250

// field: IC50; key: O=C(NC(Cc1ccccc1)c1[nH]nc(-c2ccc(F)cc2)c1-c1ccncc1)C1CCCN1 (stereo not drawn) [Example B-0749] ; value = 4400

Entry CC(NC(=O)c1ccc(C(F)(F)F)cc1F)c1[nH]nc(-c2ccc(F)cc2)c1-c1ccncc1 (stereo not drawn) , IC50 reported as 15400

The molecule CCOC(=O)NC(Cc1ccccc1)c1[nH]nc(-c2ccc(F)cc2)c1-c1ccncc1 (stereo not drawn) [Example B-0793] showed IC50 equal to 300

Entry Cc1cc(C)c(C(=O)NC(C)c2[nH]nc(-c3ccc(F)cc3)c2-c2ccncc2)c(C)c1 (stereo not drawn) — recorded IC50 = 760

I: Cc1ccccc1S(=O)(=O)NC(C)c1[nH]nc(-c2ccc(F)cc2)c1-c1ccncc1 (stereo not drawn)
II: CC(NS(=O)(=O)c1cccc2cccnc12)c1[nH]nc(-c2ccc(F)cc2)c1-c1ccncc1 (stereo not drawn)
III: CC(NS(=O)(=O)c1cccc2cnccc12)c1[nH]nc(-c2ccc(F)cc2)c1-c1ccncc1 (stereo not drawn) [Example B-0667]
IV: O=C(NCCc1[nH]nc(-c2ccc(F)cc2)c1-c1ccncc1)c1cc(F)ccc1F
Q: Sequence the entries by IC50, beginning with the highest number. Labels, requested order.
A: II, III, IV, I
(II: 1590 nM, III: 830 nM, IV: 430 nM, I: 260 nM)

I: CNC(=O)NC(C)c1[nH]nc(-c2ccc(F)cc2)c1-c1ccncc1 (stereo not drawn)
II: O=C(NC(Cc1ccccc1)c1[nH]nc(-c2ccc(F)cc2)c1-c1ccncc1)C1CCCN1 (stereo not drawn) [Example B-0794]
III: CCCCOc1ccc(S(=O)(=O)NCCc2[nH]nc(-c3ccc(F)cc3)c2-c2ccncc2)cc1
Q: Exam item: list the entries in increasing order of IC50. Rank them, then answer with their labels in that order.
A: III, I, II
(III: 430 nM, I: 830 nM, II: 2900 nM)
